apparent KD of MS2 coat protein by entry:
# Tested on: MS2 coat protein
# assay.remarks: apparent KD of MS2 coat protein; designed switch direction (-1 OFF switch, 1 ON switch): -1; higher = weaker reporter binding
# run.conditions: input ligand: none
measured.metric: apparent KD of MS2 coat protein (nM)

>>> measured_value("CAUUUGUAAGGAUAUGCACCGAUCUCCGAAAGGAGAUCGGUGCAGAAGGUACAUGAGGAUCACCCAUGUUGAUG [Mod of Brourd 11 - Jieux - Exclusion 4] (Eterna round: R97, puzzle: Exclusion 4)")
33.6
>>> measured_value("CCGGCGGUAGGAUAUACAAUUGUAAAAGGCAGGUGGUGUCAACAUGAGGAUCACCCAUGUAGAAGGACCUUAAA [EX2 C.26] (Eterna round: R97, puzzle: Exclusion 2)")
22.4
>>> measured_value("UACAUGAGGAUCACCCAUGUUUUGUCGUGUAUGGUAUUUAUCUAGGAUAUCAAUUGAUUUAUUUAUGAGAAGGAGAAUAUUAAU [JMF's solution 15] (Eterna round: R96, puzzle: Exclusion NG 3)")
39.5
>>> measured_value("GACUUCUCUGAGGAUAUUGCAUCACCCGAUCUAUAAGAAGGCAGAACAUGAGGAUCACCCAUGUGGGUUUCUAG [Bingo-Bango-27] (Eterna round: R97, puzzle: Exclusion 6)")
29.7
>>> measured_value("GGACACUGAGGAUAUACAAUUCAGGUCCUCCUGUAGAGUAUACAUGAGGAUCACCCAUGUAGAAGGCAGACCAA [Aronberiat] (Eterna round: R97, puzzle: Exclusion 2)")
44.9
>>> measured_value("GGCAUGUAAGGAUAUGCCACUGAGUGCUUUGCGCUCAGAAAGCAGAAGGUACAUGAGGAUCACCCAUGUGAUAA [jl-ex4-4.53 ViennaUCT mod] (Eterna round: R97, puzzle: Exclusion 4)")
650
>>> measured_value("GCCGUACAAGGAUAUCUAUCGCAAAACAUGAGGAUCACCCAUGUGUAUCCUAACCGGCGAAGAGAAGGUGUAGUUA [Letelabe] (Eterna round: R97, puzzle: Exclusion 5)")
18.1
>>> measured_value("ACGCCGCAAGGAUAUACUUGCGGUGAUGUUCGAGUUCUUCUACUUGAGGAUCACCCAAGUAGAAGGUGCGAUGG [jl-ex2.4.61 ViennaUCT mod] (Eterna round: R97, puzzle: Exclusion 2)")
13.8
>>> measured_value("CAACACUGAGGAUAUGCUCGGCCGGUUCUCCGUGCCCAAGUACUUGAGGAUCACCCAAGUAGAAGGCAGUAAAA [Diedar] (Eterna round: R97, puzzle: Exclusion 2)")
16
>>> measured_value("UCUUCACAUGAGGAUCACCCAUGUCAGGAUAUAAGGUCUUGUCUACGUUGAAGGGACUUUAGAAGGGACACUUG [EX1 B.6] (Eterna round: R97, puzzle: Exclusion 1)")
36

* * *

# Tested on: MS2 coat protein
# assay.remarks: apparent KD of MS2 coat protein; designed switch direction (-1 OFF switch, 1 ON switch): -1; higher = weaker reporter binding
# run.conditions: input ligand: none
Label Condition met when apparent KD of MS2 coat protein is at or above 20 nM; anything below gets Condition not met.

>>> label("UCCAGUAUAUGGAGAUUUUACAUGAGGAUCACCCAUGUUGGGACAGCUUUUUGCUUGUCUUAUCCUACUUCGUGUGU [Design #4] (Eterna round: R97, puzzle: Sensor, turn-off variant 1)")
"Condition met"
>>> label("UAACUACAUGAGGAUCACCCAUGUCAGGAUAUGCCAUUAAAUUAACAUCAACAUACGGGUAGAAGGGACAACGU [1st #2] (Eterna round: R97, puzzle: Exclusion 1)")
"Condition met"
>>> label("GACAUGAGGAUCACCCAUGUAAGGGAUGAACUUCUGGGUAGCUAGGAUAUGGCUACAAAUGUGGACCAGAAGGAGCAUACCCUA [Didianveon] (Eterna round: R96, puzzle: Exclusion NG 3)")
"Condition not met"
>>> label("AUUGAAUGAAACCUCUAAUACAUGAGGAUCACCCAUGUUAUCGAGGAUAUGCAGAAUAGAUUAGAGCAGAAGGCGAAGUAAUAU [JR_ExcNG3_Sub024] (Eterna round: R96, puzzle: Exclusion NG 3)")
"Condition not met"
>>> label("CCGAUGUCAGGAUAUAGCGGUCGCUGCCACGGUGGAGUCUGCUAGAAGGGACAUGAGGAUCACCCAUGUCGAAC [Eternabot (Original) Solution 49] (Eterna round: R97, puzzle: Exclusion 4)")
"Condition met"

* * *

# System: MS2 coat protein
# assay.remarks: apparent KD of MS2 coat protein, switch ON state; designed switch direction (-1 OFF switch, 1 ON switch): 1; higher = weaker reporter binding
# run.conditions: FMN input: 0 or 200 uM; Eterna round: R93 (includes R88 designs)
measured.metric: apparent KD of MS2 coat protein (nM)

>>> measured_value("AAUAAACAUGAGGAUCACCCAUGUUUUAAUAGUUGAGGAUAUAAGGGUGAAAAUAGCAUAUUAGAAGGCGAGUGUA [SameState1 Malc#14]")
32.7
>>> measured_value("AAAAAAAAAACUCAGGAUAUAGAUUGUUGAACAUGAGGAUCACCCAUGUAGUGAAAAGCGAAAAACUAGAAGGGAGGAAAAAAAAA [SameState2-03]")
30.5
>>> measured_value("UAACAACAUGAGGAUCACCCAUGUCAAACAAAUCGAGGAUAUGGGCAGGAUUCUUCCUAUCUAGAAGGCGAAAACA [Ricexebi]")
145

* * *

apparent KD of K4 kissing-loop reporter by entry:
# Tested on: K4 kissing-loop RNA reporter;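 further: bound reporter read as fluorescence of individual clusters on recovered sequencing chips by microscopy, with normalized cluster intensities fitted with a binding model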
# assay.remarks: apparent KD of K4 kissing-loop reporter; higher = weaker reporter binding
# run.conditions: Eterna round: R107; input ligand: tryptophan 2.4 mM
measured.metric: apparent KD of K4 kissing-loop reporter (µM)

>>> measured_value("GGUUCGAGUGAUGUUCGGGUCGAUUGGGAAGGAGCGCCCGGAAGGGCAGGUAGGUCGCCCGGGCCGCGCGGGAAACCGCGCGUCC [#2 Same State - Arginine A Attempt #7 (HarryS)]")
0.144
>>> measured_value("CAUACGCAUGGAGGAUAUGAGAUUACUCAUAUCAUUUAAUAUUCUCAGUGAUGUUGAGAUUUAGGCUCAGAAGGCCAUGUGUAUG [Ex FMN B 14]")
0.375
>>> measured_value("UGUAUGGACUGAAGGAGCGGUAGAUAAACUGAGUGAUGUUCGGCAGAUAAAGGCGCAAGCCACCAGGUAGGUCGCAGUCCAUACU [KL-SSArg B3]")
0.342
>>> measured_value("UGAUACCAGACUGAUACCAGCAAGUGAUGUUUGCUGAUCUAAAGCAGUCAAAGACUGCCUUGCCCUUGGCAGCAGUCUGGUAUCU [TheoBX 25 #SwitchBubble #StaticStem]")
0.0811
>>> measured_value("GGUAGCAUGGCGGCCGCCACUCGGACGACAUAGCACAUGUCGACCAGUGAUGUUGGUUCAAACACGAGGACCGGGCCAUGCUACC")
0.135
>>> measured_value("UAAACCAAAUUACGUCACCUUGUCCAAUCUAAGGAUAUGUGAUUCCACAGAAGGUAGCCACGGGAGUGAUGUUCGCGUUAAGGCG [theeternabot_exclusion_KL_FMN_A_31]")
0.419

* * *

# Tested on: MS2 coat protein
# assay.remarks: apparent KD of MS2 coat protein; higher = weaker reporter binding
# run.conditions: Eterna round: R107; input ligand: tryptophan 2.4 mM
measured.metric: apparent KD of MS2 coat protein

>>> measured_value("GCUGUACCAUGAAGGAGCGCUCACGCAGUUGCGGGUACAUGAGGAUCACCCAUGUUGGGUGAGCAGGUAGGUCGCAUGGUACAGC [SSAB #17]")
"215 nM"
>>> measured_value("GAGUCCGCGGCGGCCGCCACUCGCGGCGCCACAUGGCGCCGGGACAUGAGGAUCACCCAUGUCCCGAGGACCGGGCCGAUCCUCA [Same State Typrtophan B GF4]")
"14.5 nM"
>>> measured_value("AAGUAAACAUGAGCAAAGCUCAUGUGCGAAGGAGCGGCGGAAACGCCAGGUAGGUCGCGCACAUGAGCAUCAGCCAUGUGUGUCA [Omei Arginine B SS A v1]")
"52.9 nM"
>>> measured_value("GGUUGGUGUAGAGAUAUAUUGAUUACUGAAGGAGCGGGAACAAACCCAGGUAGGUCGCAGAGAUCCACAUGAGGAUCACCCAUGU [!0.N]")
"41.5 nM"
>>> measured_value("UGACAUUGCUCAGAUACCAGACAUGAGGAUCACCCAUGUACCGAGGUACCCGAAAGGAAUGUCCCUUGGCAGCUGAGCAAUGUCU [TheoBX 4 #MS2Left #Theo2 #StaticStem]")
"11 nM"
>>> measured_value("UCGUUUGAGUCGGCCGCCACUGGUCUCAUGGUCAACAUGAGGAUCACCCAUGUAUCUUAGUUAAACAGGACCGGGACUCGAUCGA [#17 Exclusion Tryptophan B]")
"20.6 nM"
